The entries below come with measured DNA crosslinking (Comet) ratio values attached.
- Test system: cor123
- method.notes: Comet assay, DNA crosslinking
- Type: cell-based, human
- run.conditions: ratio >1 = more cross-linking in parental than in platinum-resistant line
Please reply with the number alone, leaving off any unit.

# annotated cases, reported DNA crosslinking (Comet) ratio shown
INSERT INTO assay_data (compound, tested_target, experimental_endpoint, recorded_measurement) VALUES
  ('c1ccc([PH]([Au][CH2]c2ccc[c]([Au][PH](c3ccccc3)(c3ccccc3)c3ccccc3)c2)(c2ccccc2)c2ccccc2)cc1', 'cor123', 'DNA crosslinking (Comet) ratio', 0.43),
  ('[Au+].[c-]1ccccc1.c1ccc([PH+](c2ccccc2)c2ccccc2)cc1 [PAuP, phenylgoldtriphenylphospine, reference compound]', 'cor123', 'DNA crosslinking (Comet) ratio', 0.75),
  ('c1ccc([PH]([Au][CH2]c2cc[c]([Au][PH](c3ccccc3)(c3ccccc3)c3ccccc3)cc2)(c2ccccc2)c2ccccc2)cc1', 'cor123', 'DNA crosslinking (Comet) ratio', 0.62);

Shifting focus to the compound that follows.
(Q) What does the record list as DNA crosslinking (Comet) ratio for N.N.[Cl][Pt][Cl] [Cisplatin, cisplatin, reference compound] ?
(A) 5.72

---

- Test system: mcp1 cell line
- method.notes: Growth inhibition assay (modified MTT)
- Type: cell-based, human
- run.conditions: Table 2, further series of assays; A2780/mcp1; five-day MTT
The entries below are paired with their reported pIC50.
API: returns pIC50 as number; meaning -log10 of concentration in mol/L.

Observe how each entry below is paired with its result.
INSERT INTO assay_data (compound, experimental_endpoint, recorded_measurement) VALUES
  ('c1ccc([PH]([Au][CH2]c2ccc[c]([Au][PH](c3ccccc3)(c3ccccc3)c3ccccc3)c2)(c2ccccc2)c2ccccc2)cc1', 'pIC50', 8.41),
  ('[Au][c]1ccc[c]([Au])c1.c1ccc(P(c2ccccc2)c2ccccc2)cc1.c1ccc(P(c2ccccc2)c2ccccc2)cc1', 'pIC50', 8.46);

As a next step, examine the compound that follows.
(Q) What value of pIC50 has been reported for the following compound? N.N.O=C([O-])C1(C(=O)[O-])CCC1.[Pt+2] [Carboplatin, carboplatin, reference compound]
(A) 4.61

---

- Tested on: cor123/cpr cell line
- method.notes: Growth inhibition assay (modified MTT)
- Type: cell-based, human
- run.conditions: Table 1, first series of assays, five-day MTT
experimental.endpoint: pIC50
Interpret pIC50 as the negative base-10 log of the concentration measured in mol/L.

Consider the worked cases shown below.
INSERT INTO assay_data (compound, recorded_measurement) VALUES
  ('[Au][c]1ccc[c]([Au])c1.c1ccc(P(c2ccccc2)c2ccccc2)cc1.c1ccc(P(c2ccccc2)c2ccccc2)cc1', 8.92),
  ('c1ccc([PH]([Au][CH2]c2cc[c]([Au][PH](c3ccccc3)(c3ccccc3)c3ccccc3)cc2)(c2ccccc2)c2ccccc2)cc1', 7.80),
  ('c1ccc([PH]([Au][CH2]c2ccc[c]([Au][PH](c3ccccc3)(c3ccccc3)c3ccccc3)c2)(c2ccccc2)c2ccccc2)cc1', 8.85),
  ('N.N.[Cl][Pt][Cl] [Cisplatin, cisplatin, reference compound]', 4.57);

Now for the compound whose pIC50 we want.
(Q) Tell me the measured pIC50 of c1ccc([PH]([Au][c]2cccc[c]2[Au][PH](c2ccccc2)(c2ccccc2)c2ccccc2)(c2ccccc2)c2ccccc2)cc1 , please.
(A) 8.85
